Collected inhibition at 1 µM values appear next to each entry.
- Target Of Assay: Recombinant ROCK2 (amino acids 1-552) (Homo sapiens (Human), UniProt O75116)
- Sequence (O75116 1-552): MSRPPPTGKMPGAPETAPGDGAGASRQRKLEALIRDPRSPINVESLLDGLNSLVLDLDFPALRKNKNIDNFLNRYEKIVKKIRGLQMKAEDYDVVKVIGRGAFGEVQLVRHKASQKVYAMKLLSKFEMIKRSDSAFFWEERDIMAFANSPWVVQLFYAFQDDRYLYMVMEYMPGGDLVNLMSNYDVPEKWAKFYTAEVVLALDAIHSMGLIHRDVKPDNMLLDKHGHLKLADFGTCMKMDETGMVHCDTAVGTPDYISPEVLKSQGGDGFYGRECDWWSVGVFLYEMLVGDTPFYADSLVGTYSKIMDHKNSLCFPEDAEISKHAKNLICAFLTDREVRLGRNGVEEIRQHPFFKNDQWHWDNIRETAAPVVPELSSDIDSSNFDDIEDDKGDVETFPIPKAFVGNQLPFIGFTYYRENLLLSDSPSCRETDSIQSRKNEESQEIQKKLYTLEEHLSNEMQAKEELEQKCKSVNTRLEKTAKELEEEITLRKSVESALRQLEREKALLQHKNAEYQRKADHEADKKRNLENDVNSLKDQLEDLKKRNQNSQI
- Assay Remarks: Z′-Lyte kinase assay, ROCK2
- Type: biochemical
- Test Conditions: 1 μM compound; read-out: ROCK2 % inh. @ [conc]

# Compound, inhibition at 1 µM [%]
data = [
    ("Fc1cnc(N2CC3CNC(C3)C2)nc1Nc1ccc2[nH]ncc2c1 (stereo not shown)", 100),
    ("Cc1nc(N2CCNC(C(C)C)CC2)nc(Nc2ccc3[nH]ncc3c2)c1C (stereo not shown)", 4.6),
    ("Cc1cc(Nc2ccc3[nH]ncc3c2)nc(N2CC(C3CCNCC3)c3ccccc32)n1 (stereo not shown)", 21.6),
    ("Cc1cc(Nc2ccc3[nH]ncc3c2)nc(N2CCC3NCCC3C2)n1 (stereo not shown)", 74.1),
    ("c1cc(Nc2ccc3[nH]ncc3c2)nc(N2CCC3CNCC3CC2)n1 (stereo not shown)", 98),
    ("Fc1cnc(N2CC(C3CCCNC3)c3ccccc32)nc1Nc1ccc2[nH]ncc2c1 (stereo not shown)", 9.5),
    ("Fc1cnc(N2CC(C3CCNCC3)c3ccccc32)nc1Nc1ccc2[nH]ncc2c1 (stereo not shown)", 10.5),
    ("COc1cnc(N2CCNCC(C)C2)nc1Nc1ccc2[nH]ncc2c1 (stereo not shown)", 87.1),
    ("COc1cnc(N2CCNC(C(C)C)C2)nc1Nc1ccc2[nH]ncc2c1 (stereo not shown)", 29.3),
    ("c1cc2[nH]ncc2cc1Nc1nc(N2CCCNCC2)nc2c1CSC2", 97.3),
    ("Cc1cc(Nc2ccc3[nH]ncc3c2)nc(N2CCNC(C(C)C)C2)n1 (stereo not shown)", 64.2),
    ("Fc1cnc(N2CC3CNCC(C3)C2)nc1Nc1ccc2[nH]ncc2c1", 88.2),
    ("COc1cnc(N2CCCNCC2)nc1Nc1ccc(-c2cn[nH]c2)cc1", 52.3),
    ("CC1CCNCCN1c1nccc(Nc2ccc3[nH]ncc3c2)n1 (stereo not shown)", 84.5),
    ("CC1CN(c2ncc(F)c(Nc3ccc4[nH]ncc4c3)n2)CCN1 (stereo not shown)", 88),
    ("CC1CNCCN(c2ncc(Cl)c(Nc3ccc4[nH]ncc4c3)n2)C1 (stereo not shown)", 84.4),
    ("c1cc(Nc2ccc3[nH]ncc3c2)nc(N2CCN3CCNCC3C2)n1 (stereo not shown)", 22.2),
    ("CCC1CN(c2ncc(Cl)c(Nc3ccc4[nH]ncc4c3)n2)CCCN1 (stereo not shown)", 47.8),
    ("CCC1CCN(c2nc(C)c(C)c(Nc3ccc4[nH]ncc4c3)n2)CCN1 (stereo not shown)", 29.5),
]
